In this section we review reported melting point values for a set of molecules.

// CC(C)C(NC(=O)OC(C)(C)C)C(=O)NC(C(=O)OCC1OC(n2cc(C=CBr)c(=O)[nH]c2=O)CC1N=[N+]=[N-])C(C)C (stereo unspecified) : melting point value = 95 to 97 °C

====

Reported melting point by item:

[[record]]
compound = "NCc1cccc(Nc2ncnc3[nH]cc(C(=O)c4ccccc4)c23)c1"
value = "210 to 212 °C"

[[record]]
compound = "C[C@H]1c2onc(-c3ccc(Cl)cc3)c2CCC[C@H]1C(=O)O (relative stereo)"
value = "149 to 150 °C"


The compound identified as O=C1NC(=O)C(Cc2ccc(OCc3nc4cccnc4n3Cc3ccc(-c4ccccc4)cc3)cc2)S1 (centres undefined) registered its melting point at 189 to 191 °C

Input `CNc1nc2c(OCc3ccccc3)cccc2n1C` . Output melting point: 213 °C

Documented melting point of `CC=CCNc1cc(C(=O)O)cc(S(N)(=O)=O)c1Nc1ccc(N)cc1` : 208 °C

The compound listed as `Cc1ncn(-c2ccc(CNC(=O)c3nc4n(c(=O)c3OCc3ccccc3)CCOC4(C)C)c(F)c2)n1` shows melting point equal to 183 to 185 °C

The compound listed as `CCOC(=O)C(=O)Nc1nc2ccccc2s1` has a reported melting point of 185 to 186 °C

melting point in this record for `CO/C=C(/C(=O)OC)c1ccccc1Oc1nc(Cl)nc(Oc2ccccc2)n1` : 103 to 104 °C

For this compound ( `Cc1oc(-c2ccccc2)nc1COc1ccc(I)cn1` ), measured melting point is 129 to 130 °C

====

Examples of molecules with documented melting point follow.

Please fill in: melting point reported for `O=C(/C=C/C=C(c1cccc(F)c1)c1cccc(F)c1)NCCCCc1cccnc1` = 103 to 104 °C

Looking up `Cc1nc2sc3ccccc3n2n1` , I found its melting point recorded as 75 to 76 °C

Recorded result, O=C1CC(Nc2ccccc2)C(=O)N1c1ccccc1 (stereo not given) , melting point: 211 to 214 °C

Memo: `CCOC(=O)c1c(CCl)nc2cc3c(cc2c1-c1ccc(OC)c(OC)c1)OCCO3` , reported melting point: 197 to 198 °C

====

Documented melting point across a set of compounds

[[record]]
compound = "COc1ccc2c(c1)COc1c-2ccc2cc(OC)ccc12"
value = "175 to 178 °C"


Kindly note the recorded melting point for `Cc1ccc2c(-c3cc(C(C)(C)C)c(O)c(C(C)(C)C)c3)nn(C)c2n1` , which is 178 to 181 °C

Entry `COC(=O)[C@H](Cc1ccc(-c2cn(C)c(=O)n(C)c2=O)cc1)NC(=O)c1c(C)cccc1Cl` , melting point reported as 155 to 157 °C

Memo: `C#Cc1cc(OC)c(OC)c(OC)c1` , reported melting point: 68 to 70 °C

Consider Cc1ccc(C2(CC(=O)O)CNC(=O)C2)cc1 (stereo unspecified) . Its measured melting point is 184 to 186 °C

The recorded melting point for entry `COc1ccc(OCCOc2ccc(C(=O)C(=O)O)cc2)cc1` equals 138 to 139 °C

====

propertyName: melting point

[[record]]
compound = "CSc1c(N)nc(N2CCOCC2)nc1Cl"
value = "115 °C"

[[record]]
compound = "O=C1CCC(c2ccc3[nH]c(C(=O)O)cc3c2)=NN1"
value = "185 to 187 °C"

[[record]]
compound = "Cc1cn(C2CC(F)C(CO)O2)c(=S)[nH]c1=S (stereo not given)"
value = "164 to 165 °C"

[[record]]
compound = "Cc1cn(-c2nc(C3=Nc4ccc(-c5ccc(F)cc5)cc4NC(=O)C3)cs2)cn1"
value = "229 °C"

[[record]]
compound = "CCOc1cc2c(C)c(CCN3CCN(c4ccccc4OC)CC3)c(=O)oc2cc1OC"
value = "143 to 145 °C"

[[record]]
compound = "COc1ccc(C(c2ccc(OC)cc2)c2cnccc2C(=O)NC23CC4CC(CC2C4)C3)cc1"
value = "110 to 112 °C"

[[record]]
compound = "CCn1c(=O)c2c(nc(/C=C/c3ccc(O)cc3)n2C)n(CC)c1=O"
value = "> 270 °C"

[[record]]
compound = "COC(=O)C(CCCCCCCCCCCCC(C(=O)O)C1CC1)C1CC1 (stereo not given)"
value = "59.4 to 60.5 °C"


The measured melting point associated with CC(=O)OC12Oc3c(C(C)(C)C)cc(C(C)(C)C)cc3C1(OC(C)=O)C(=O)c1ccccc12 (stereo not given) reads 242 to 247 °C

According to the records, this compound `COC(=O)c1cccc(-c2nc(-c3ccc(OC)cc3)cs2)c1` displays melting point of 108 to 109 °C
